- Experiment summary: In vivo pharmacokinetics
- Design: species or system male Sprague Dawley rats
- Condition label: male, Sprague Dawley, rat, plasma; rats, single oral 100 mg/kg
Endpoint: Cmax (ng/mL)
Give bare numbers, in ng/mL.

query: Suppose we examine the compound Cc1[nH]c2nc(N)nc(C)c2c1-c1ccc(C#N)c2c1OCO2 [DNDI-6174] ; what Cmax value has been reported?
result: 20900

* * *

- Experiment summary: Compartmental PK modelling and repeat-dose simulation
- Design: species or system mice
- Condition label: mouse, plasma, po, 7.1 mg/kg, Mice, 7.1 mg/kg, fitted; read-out: Cmax
Endpoint: Cmax (ng/mL)
One number for each entry, in ng/mL.

query: Entry Cc1[nH]c2nc(N)nc(C)c2c1-c1ccc(C#N)c2c1OCO2 : reported Cmax = ?
result: 2190

Data credit: paper PMC7615677
